Property: selectivity ratio; scope: individual molecules
- Assay procedure: Selectivity ratio, ratio of CC50 for Huh5.2 cells to IC50 for HCV infected in Huh5.2 cells
- Assay type: cell-based
- Run parameters: human, Huh5.2 cells (CC50) and HCV-infected Huh5.2 cells (IC50)

These solved cases illustrate the format of a correct answer.
Record smiles	Value measured
Cc1cn(Cc2cn(CP(=O)(O)O)nn2)c(=O)[nH]c1=O	> 13
Cc1cn(Cc2cn(CCP(=O)(O)O)nn2)c(=O)[nH]c1=O	> 15
Nc1ncnc2c1ncn2Cc1cn(CCP(=O)(O)O)nn1	< 1
Nc1ncnc2c1ncn2Cc1cn(CP(=O)(O)O)nn1	> 20

Noted for `O=c1ccn(Cc2cn(CCP(=O)(O)O)nn2)c(=O)[nH]1` : its selectivity ratio reads > 20

Noted for `O=c1ccn(Cc2cn(CP(=O)(O)O)nn2)c(=O)[nH]1` : its selectivity ratio reads 4.42

---

- Tested on: Hepatitis C virus
- Assay procedure: Antiviral activity against HCV infected in Huh5.2 cells assessed as inhibition of viral replication by luciferase reporter gene assay
- Assay type: functional, organism-based, Hepacivirus hominis
- Run parameters: Huh-5-2
Property: IC50; scope: individual compounds

These solved cases illustrate the format of a correct answer.
Record smiles	IC50
Nc1ncnc2c1ncn2Cc1cn(CCP(=O)(O)O)nn1	> 35 µM
Nc1ncnc2c1ncn2Cc1cn(CP(=O)(O)O)nn1	16 µM

Noted for `Cc1cn(Cc2cn(CP(=O)(O)O)nn2)c(=O)[nH]c1=O` : its IC50 reads 26 µM

Noted for `O=c1ccn(Cc2cn(CP(=O)(O)O)nn2)c(=O)[nH]1` : its IC50 reads 29 µM

Noted for `O=c1ccn(Cc2cn(CCP(=O)(O)O)nn2)c(=O)[nH]1` : its IC50 reads 16 µM

Noted for `Cc1cn(Cc2cn(CCP(=O)(O)O)nn2)c(=O)[nH]c1=O` : its IC50 reads 20 µM

Where do the numbers come from? From ChEMBL document CHEMBL1287757.
